- Target Entity: Genome polyprotein (West Nile virus, UniProt P06935)
- Sequence (P06935 1371-1501 limits assumed): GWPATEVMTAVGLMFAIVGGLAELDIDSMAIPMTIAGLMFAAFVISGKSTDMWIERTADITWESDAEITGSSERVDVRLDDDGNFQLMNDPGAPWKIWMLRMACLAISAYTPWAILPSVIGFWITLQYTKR
- Sequence (P06935 1502-2120 limits assumed): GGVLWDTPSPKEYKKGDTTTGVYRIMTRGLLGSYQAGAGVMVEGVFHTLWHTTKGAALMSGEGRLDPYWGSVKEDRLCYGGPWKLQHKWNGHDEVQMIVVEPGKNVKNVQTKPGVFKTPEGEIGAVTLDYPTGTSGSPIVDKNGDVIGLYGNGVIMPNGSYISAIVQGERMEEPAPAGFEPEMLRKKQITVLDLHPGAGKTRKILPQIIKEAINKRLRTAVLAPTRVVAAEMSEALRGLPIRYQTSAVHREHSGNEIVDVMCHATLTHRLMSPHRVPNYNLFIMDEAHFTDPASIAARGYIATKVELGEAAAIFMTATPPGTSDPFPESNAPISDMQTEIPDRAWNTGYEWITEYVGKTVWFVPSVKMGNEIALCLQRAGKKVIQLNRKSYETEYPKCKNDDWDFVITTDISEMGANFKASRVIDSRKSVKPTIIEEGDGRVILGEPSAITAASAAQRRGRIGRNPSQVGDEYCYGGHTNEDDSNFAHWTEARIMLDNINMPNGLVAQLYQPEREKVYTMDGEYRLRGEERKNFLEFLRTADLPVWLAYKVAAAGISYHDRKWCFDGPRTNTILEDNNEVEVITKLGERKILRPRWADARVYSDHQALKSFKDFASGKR
- Assay Text: Inhibition of West Nile virus NS2B (47 residues)-NS3 (184 residues) protease expressed in Escherichia coli BL21 (DE3) preincubated for 15 mins followed by Benzoyl-Nle-KRR-AMC addition and measured after 30 mins by fluorescence method
Readout Label: pKi
Scale: negative log10 of molar concentration, which is what pKi denotes.

Data request: I would be grateful if you could share the reported pKi for N=C(N)NCCCC(C=O)NC(=O)[C@H](CCCCN)NC(=O)c1ncc[nH]1 (stereo partly specified) .
Data returned: 6.92

====

- Target Entity: Nonstructural protein 3 (Zika virus, UniProt A0A024AXB9)
- Sequence (A0A024AXB9 whole entry, the tested form may be a part): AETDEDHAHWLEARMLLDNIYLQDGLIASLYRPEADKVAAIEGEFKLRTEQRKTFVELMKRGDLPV
- Assay Text: Inhibition of Zika virus IbH_30656 NS2B (45 to 96 residues)-NS3 (1 to 177 residues) protease expressed in Escherichia coli BL21/Rosetta (DE3) cells preincubated for 60 mins followed by Bz-nKRR-AMC addition and measured at 60 secs intervals over 10 mins by fluorescence method
Readout Label: IC50

Data request: I would be grateful if you could share the reported IC50 for "[H]/N=C(\N)NCCC[C@@H](C=O)NC(=O)[C@H](CCCCN)NC(C)=O" .
Data returned: 280 nM
